The origin of these recorded values is ChEMBL document CHEMBL3792357.

assay: Selectivity index, ratio of CC50 for MDCK cells to EC50 for Influenza A virus PR/8/34 infected in MDCK cells; format: toxicity, cell-based; details: dog, read-out: Ratio CC50/EC50
Below: a set of entries, each annotated with reported selectivity ratio.

Use the examples below as a reference point.
Cc1cccc(NC(=O)CCCSc2nc(-c3ccccc3)cc(-c3ccccc3)c2C#N)c1 = 5.1
CCOC(=O)C1=C[C@@H](OC(CC)CC)[C@H](NC(C)=O)[C@@H](N)C1 = > 16000

**Query** For the compound shown here, "CSCC[C@H](N)C(=O)N[C@@H](CC(=O)O)C(=O)N[C@H](C(=O)N[C@@H](CC(N)=O)C(=O)N1CCC[C@H]1C(=O)N[C@H](C(=O)N[C@@H](CC(C)C)C(=O)N[C@@H](CC(C)C)C(=O)N[C@@H](Cc1ccccc1)C(=O)N[C@@H](CC(C)C)C(=O)N[C@@H](CCCCN)C(=O)N[C@H](C(=O)N1CCC[C@H]1C(=O)N[C@@H](C)C(=O)N[C@@H](CCC(N)=O)C(=O)O)C(C)C)[C@@H](C)O)C(C)C" , give the reported selectivity ratio.
**Result** > 5

**Query** # repeat for "Cc1cccc(NC(=O)/C=C/c2nc(-c3ccccc3)cc(-c3ccccc3)c2C#N)c1"
**Result** > 3.5

* * *

assay: Cytotoxicity against MDCK cells assessed as decrease in cell viability after 48 hrs by MTT assay; type: cell-based, Canis lupus familiaris; conditions: dog
Below: a set of entries, each annotated with reported log10(CC50 at 48 h).
Reminder: these figures are log10 of reported CC50 at 48 h, in µM before transformation.

Use the examples below as a reference point.
Cc1cccc(NC(=O)CCCSc2nc(-c3ccccc3)cc(-c3ccccc3)c2C#N)c1 = 1.62
Cc1cccc(NC(=O)CSc2nc(-c3ccccc3)ccc2C#N)c1 = 0.85
Cc1cccc(NC(=O)CSc2nc(-c3ccccc3)cc(-c3ccccc3)n2)c1 = 1.00

**Query** For the molecule shown here, "CSc1nc(-c2ccccc2)cc(-c2ccccc2)c1C#N" , give the reported log10(CC50 at 48 h).
**Result** 2.10

**Query** # repeat for "Cc1cccc(NC(=O)CCSc2nc(-c3ccccc3)cc(-c3ccccc3)c2C#N)c1"
**Result** 1.14

**Query** # repeat for "N#Cc1cnc(-c2ccccc2)cc1-c1ccccc1"
**Result** 2.02

**Query** # repeat for "Cc1cccc(NC(=O)CSc2cc(-c3ccccc3)cc(-c3ccccc3)n2)c1"
**Result** 2.18

**Query** # repeat for "Cc1cccc(NC(=O)CSc2nccc(-c3ccccc3)c2C#N)c1"
**Result** 1.62

* * *

test: Cytotoxicity against HEK293T cells assessed as decrease in cell viability after 24 hrs by MTT assay; type: cell-based, HEK-293T; details: human
Below: a set of entries, each annotated with reported CC50 at 24 h.
Quick note: give the figure in µM, leave out the unit.

CSc1nc(-c2ccccc2)cc(-c2ccccc2)c1C#N = 144
Cc1cccc(NC(=O)CCc2nc(-c3ccccc3)cc(-c3ccccc3)c2C#N)c1 = 140
Cc1cccc(NC(=O)CCSc2nc(-c3ccccc3)cc(-c3ccccc3)c2C#N)c1 = 150

**Query** For the compound shown here, "Cc1cccc(NC(=O)CSc2nccc(-c3ccccc3)c2C#N)c1" , give the reported CC50 at 24 h.
**Result** 180

**Query** # repeat for "Cc1cccc(NC(=O)CSc2nc(-c3ccccc3)cc(-c3ccccc3)n2)c1"
**Result** 22.3
